target_or_system: CaNbp2
method: SPOT peptide array binding signal intensity (averaged, normalized) (arbitrary units (background-subtracted, floor 0; scale differs between SH3 domains)); higher = stronger binding of the SH3 domain to the peptide
Tag: 1.0 if measured SPOT peptide array binding signal intensity is not below 10, 0.0 if it is.

binder: PIVPSSPAPPLPLSG
group: 0.0

binder: KDKKTKPTPPPKPSH
group: 0.0

binder: FVLRYYILIPHEQWD
group: 1.0

binder: IHTRRPSSTSQYLIR
group: 1.0

binder: RKQRSIPLSPIVPES
group: 1.0

binder: NENKKLPPAPTVFGL
group: 0.0
